assay_system: T1, sIL-6R (soluble IL-6 receptor; SBH Sciences) (human, UniProt P08887 20-365)
T1 construct: also called human IL-6R
T1 sequence: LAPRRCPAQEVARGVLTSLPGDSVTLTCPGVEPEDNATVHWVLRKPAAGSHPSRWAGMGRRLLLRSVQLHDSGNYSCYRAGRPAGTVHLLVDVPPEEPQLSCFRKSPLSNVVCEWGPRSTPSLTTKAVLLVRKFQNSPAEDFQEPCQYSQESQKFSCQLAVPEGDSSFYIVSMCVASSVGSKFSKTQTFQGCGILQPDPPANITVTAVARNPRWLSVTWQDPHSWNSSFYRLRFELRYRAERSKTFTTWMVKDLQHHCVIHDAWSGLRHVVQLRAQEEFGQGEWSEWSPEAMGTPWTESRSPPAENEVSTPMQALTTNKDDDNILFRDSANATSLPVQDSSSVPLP
assay_procedure: SPR (BIAcore 3000), antibody on chip, sIL-6R analyte, 25 C
Known koff of a selection of binders
endpoint: koff (s⁻¹)

- binder: "13# (antibody, human IgG1, kappa, V domains shown, also called Sample # 13) VH: QVQLQESGPGLVRPSQTLSLTCTVSGYSITSDHAWSWVRQPPGRGLEWIGFISYSGITTYNPSLKSRVTMLRDTSKNQFSLRLSSVTAADTAVYYCARCLARTTAMDYWGQGSLVTVSS VL: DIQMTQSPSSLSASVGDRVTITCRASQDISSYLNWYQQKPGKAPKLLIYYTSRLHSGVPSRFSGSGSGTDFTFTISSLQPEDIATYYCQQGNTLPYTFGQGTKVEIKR"
  experimental_result: 0.0001
- binder: "17# (antibody, human IgG1, kappa, V domains shown, also called Sample # 17) VH: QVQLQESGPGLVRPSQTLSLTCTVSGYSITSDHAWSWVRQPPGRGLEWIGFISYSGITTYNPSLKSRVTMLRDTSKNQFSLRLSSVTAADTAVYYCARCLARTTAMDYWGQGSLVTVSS VL: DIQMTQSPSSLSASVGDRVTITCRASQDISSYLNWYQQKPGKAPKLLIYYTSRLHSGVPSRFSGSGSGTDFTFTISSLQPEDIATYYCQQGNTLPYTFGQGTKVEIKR"
  experimental_result: "8.71e-05"
- binder: "8# (antibody, human IgG1, kappa, V domains shown, also called Sample # 8) VH: QVQLQESGPGLVRPSQTLSLTCTVSGYSITSDHAWSWVRQPPGRGLEWIGFISYSGITTYNPSLKSRVTMLRDTSKNQFSLRLSSVTAADTAVYYCARSLARTTAMDFWGQGSLVTVSS VL: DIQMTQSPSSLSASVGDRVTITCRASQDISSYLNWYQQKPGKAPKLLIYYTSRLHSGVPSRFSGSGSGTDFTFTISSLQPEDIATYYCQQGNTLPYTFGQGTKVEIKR"
  experimental_result: 0.000241
